meta.source: patent US20260250257A1

test system: ATCC19606 strain (Acinetobacter baumannii); test: Checkerboard antibacterial synergistic activity test with polymyxin E (FIC); assay type: cell-based; set-up: key: FIC≤0.5 synergy; 0.5–1 additive; 1–2 indifferent; ≥2 antagonism; conditions: combined with polymyxin E
Reported Synergistic activity (FIC value) ATCC19606 is given for each of the following compounds.
Write the number on its own, no unit after it.

Previously resolved entries follow.
NC(N)=Nc1nc(-c2ccccc2Oc2ccc(I)cc2I)cs1: 0.03
O=[N+]([O-])c1ccc(Oc2ccc(I)cc2I)cc1-c1c[se]c(N=C2NCCCN2)n1: 0.03
NC(N)=Nc1nc(-c2cccc3c2C(F)(F)c2cc(Br)ccc2-3)cs1: 1.25
Clc1cc(Oc2ccc(Cl)cc2Cl)cc(-c2csc(N=C3NCCCN3)n2)c1: 0.03
Ic1cccc(-c2csc(N=C3NCCCN3)n2)c1: 0.26

Input line: Find the recorded Synergistic activity (FIC value) ATCC19606 belonging to `Clc1ccc(Oc2cc(Cl)ccc2-c2c[nH]c(N=C3NCCCN3)n2)c(Cl)c1` and report it.
Output line: 0.31

Input line: Then `CSc1cc2cccc(C)n2c1-c1csc(N=C2NCCCN2)n1` ?
Output line: 1.25

Input line: Then `COc1cccc(-c2csc(N=C(N)N)n2)c1` ?
Output line: 1.25

Input line: Then `NC(N)=Nc1nc(-c2ccc(I)cc2)cs1` ?
Output line: 0.28
